- Tested on: German cockroaches (Blattella germanica)
- ASSAY_DETAILS: Test Example 1: vial inner-wall residual contact test, German cockroaches
- Format: in vivo
- CONDITION_SET: 300 mg/m^2 treated per area, German cockroach, read-out: Moribund and mortal rates (%)
MEASUREMENT_KIND: mortality at 300 mg/m2 (%)
One number for each entry, in %.

COMPOUND | TGT | UNIT_OF_MEASURE | mortality at 300 mg/m2
CCS(=O)(=O)c1cc(C)cnc1-c1nc2cc([S+]([O-])C(F)(F)F)ccc2o1 (stereo not drawn) | German cockroaches (Blattella germanica) | % | 40
CCS(=O)(=O)c1cc(C)cnc1-c1nc2cc(S(=O)(=O)C(F)(F)F)ccc2o1 | German cockroaches (Blattella germanica) | % | 30
CCS(=O)(=O)c1cc(C2CC2)cnc1-c1nc2cc(S(=O)(=O)C(F)(F)F)ccc2o1 | German cockroaches (Blattella germanica) | % | 100
CCS(=O)(=O)c1cc(C2CC2)cnc1-c1nc2cc([S+]([O-])C(F)(F)F)ccc2o1 (stereo not drawn) | German cockroaches (Blattella germanica) | % | 100

Kindly give each listed record's mortality at 300 mg/m2.
1. CCS(=O)(=O)c1cc(C(F)(F)F)cnc1-c1nc2cc(S(=O)(=O)C(F)(F)F)ccc2o1
2. CCS(=O)(=O)c1cc(C(F)(F)F)cnc1-c1nc2cc([S+]([O-])C(F)(F)F)ccc2o1 (stereo not drawn)

1: 50; 2: 50

* * *

Kindly supply the reported mortality at 300 mg/m2 values for the records listed here.
- Test system: African malaria mosquitos (Anopheles gambiae)
- ASSAY_DETAILS: Test Example 2: vial inner-wall contact test, 50 minutes exposure, female adult African malaria mosquitos
- Type: in vivo
- CONDITION_SET: 300 mg/m^2 treated per area, Anopheles gambiae female adults, after 4 days, read-out: Moribund and mortal rates (%) after 4 days
One number for each entry, in %.

Recorded results for 3 compounds are shown here.
COMPOUND | MEASUREMENT
CCS(=O)(=O)c1cc(C)cnc1-c1nc2cc(S(=O)(=O)C(F)(F)F)ccc2o1 | 26
CCS(=O)(=O)c1cc(C2CC2)cnc1-c1nc2cc(S(=O)(=O)C(F)(F)F)ccc2o1 | 100
CCS(=O)(=O)c1cc(C(F)(F)F)cnc1-c1nc2cc([S+]([O-])C(F)(F)F)ccc2o1 (stereo not drawn) | 53

Kindly give each listed record's mortality at 300 mg/m2.
1. CCS(=O)(=O)c1cc(C)cnc1-c1nc2cc([S+]([O-])C(F)(F)F)ccc2o1 (stereo not drawn)
2. CCS(=O)(=O)c1cc(C(F)(F)F)cnc1-c1nc2cc(S(=O)(=O)C(F)(F)F)ccc2o1
3. CCS(=O)(=O)c1cc(C2CC2)cnc1-c1nc2cc([S+]([O-])C(F)(F)F)ccc2o1 (stereo not drawn)

[35, 15, 100]

* * *

- System: Formosan subterranean worker termites (Coptotermes formosanus)
- ASSAY_DETAILS: Test Example 4: treated filter paper contact test, 1 hour exposure, Formosan subterranean worker termites
- Assay type: in vivo
- CONDITION_SET: 300 mg/m^2 treated per area, Coptotermes formosanus workers, after 3 days, read-out: Moribund and mortal rates (%) after 3 days
Kindly supply the reported mortality at 300 mg/m2 values for the records listed here.
Numbers only, in %.

Recorded results for 4 compounds are shown here.
COMPOUND | UNIT_OF_MEASURE | mortality at 300 mg/m2
CCS(=O)(=O)c1cc(C(F)(F)F)cnc1-c1nc2cc(S(=O)(=O)C(F)(F)F)ccc2o1 [Comparative compound 2] | % | 10
CCS(=O)(=O)c1cc(C)cnc1-c1nc2cc([S+]([O-])C(F)(F)F)ccc2o1 (stereo not drawn) [Comparative compound 3] | % | 10
CCS(=O)(=O)c1cc(C2CC2)cnc1-c1nc2cc([S+]([O-])C(F)(F)F)ccc2o1 (stereo not drawn) [Present compound A] | % | 100
CCS(=O)(=O)c1cc(C)cnc1-c1nc2cc(S(=O)(=O)C(F)(F)F)ccc2o1 [Comparative compound 4] | % | 10

Kindly give each listed record's mortality at 300 mg/m2.
1. CCS(=O)(=O)c1cc(C2CC2)cnc1-c1nc2cc(S(=O)(=O)C(F)(F)F)ccc2o1 [Present compound B]
2. CCS(=O)(=O)c1cc(C(F)(F)F)cnc1-c1nc2cc([S+]([O-])C(F)(F)F)ccc2o1 (stereo not drawn) [Comparative compound 1]

1: 100; 2: 10

* * *

Kindly supply the reported mortality at 5 mg/m2 values for the records listed here.
- Test system: little red worker ants (Monomorium pharaonis)
- ASSAY_DETAILS: Test Example 3: vial inner-wall contact test, 1 hour exposure, little red worker ants
- Type: in vivo
- CONDITION_SET: 5 mg/m^2 treated per area, Monomorium pharaonis workers, after 1 day, read-out: Moribund and mortal rates (%) after 1 day
Numbers only, in %.

Recorded results for 3 compounds are shown here.
COMPOUND | MEASUREMENT
CCS(=O)(=O)c1cc(C2CC2)cnc1-c1nc2cc([S+]([O-])C(F)(F)F)ccc2o1 (stereo not drawn) [Present compound A] | 100
CCS(=O)(=O)c1cc(C2CC2)cnc1-c1nc2cc(S(=O)(=O)C(F)(F)F)ccc2o1 [Present compound B] | 100
CCS(=O)(=O)c1cc(C)cnc1-c1nc2cc(S(=O)(=O)C(F)(F)F)ccc2o1 [Comparative compound 4] | 10

Kindly give each listed record's mortality at 5 mg/m2.
1. CCS(=O)(=O)c1cc(C(F)(F)F)cnc1-c1nc2cc(S(=O)(=O)C(F)(F)F)ccc2o1 [Comparative compound 2]
2. CCS(=O)(=O)c1cc(C(F)(F)F)cnc1-c1nc2cc([S+]([O-])C(F)(F)F)ccc2o1 (stereo not drawn) [Comparative compound 1]
3. CCS(=O)(=O)c1cc(C)cnc1-c1nc2cc([S+]([O-])C(F)(F)F)ccc2o1 (stereo not drawn) [Comparative compound 3]

20
30
10

* * *

Kindly supply the reported mortality at 10 mg/m2 values for the records listed here.
- Tested on: African malaria mosquitos (Anopheles gambiae)
- ASSAY_DETAILS: Test Example 2: vial inner-wall contact test, 50 minutes exposure, female adult African malaria mosquitos
- Assay type: in vivo
- CONDITION_SET: 10 mg/m^2 treated per area, Anopheles gambiae female adults, after 4 days, read-out: Moribund and mortal rates (%) after 4 days
One number for each entry, in %.

COMPOUND | TGT | mortality at 10 mg/m2 [%]
CCS(=O)(=O)c1cc(C2CC2)cnc1-c1nc2cc(S(=O)(=O)C(F)(F)F)ccc2o1 | African malaria mosquitos (Anopheles gambiae) | 100
CCS(=O)(=O)c1cc(C(F)(F)F)cnc1-c1nc2cc([S+]([O-])C(F)(F)F)ccc2o1 (stereo not drawn) | African malaria mosquitos (Anopheles gambiae) | 43
CCS(=O)(=O)c1cc(C)cnc1-c1nc2cc([S+]([O-])C(F)(F)F)ccc2o1 (stereo not drawn) | African malaria mosquitos (Anopheles gambiae) | 7

Kindly give each listed record's mortality at 10 mg/m2.
1. CCS(=O)(=O)c1cc(C2CC2)cnc1-c1nc2cc([S+]([O-])C(F)(F)F)ccc2o1 (stereo not drawn)
2. CCS(=O)(=O)c1cc(C(F)(F)F)cnc1-c1nc2cc(S(=O)(=O)C(F)(F)F)ccc2o1
3. CCS(=O)(=O)c1cc(C)cnc1-c1nc2cc(S(=O)(=O)C(F)(F)F)ccc2o1

1. 100
2. 13
3. 15
